Values compiled from the supplement of paper PMC10724198.

test system: Saccharomyces cerevisiae; assay: protein stability index of tFT-peptide fusion (C-terminal peptide) (PSI (0-1 scale)); higher = more stable (slower turnover); conditions: genetic background: doa10 deletion; temperature: 30 C
reported_endpoint: protein stability index
Reply with just the number.

Some entries whose results are on file:
[[record]]
macromolecule_sequence = "ARKIGKVIPKLG"
measured_value = 0.292

[[record]]
macromolecule_sequence = "LRVVLVEWMCVV"
measured_value = 0.172

[[record]]
macromolecule_sequence = "IFSTQMVRFSLL"
measured_value = 0.261

[[record]]
macromolecule_sequence = "FFVKGFRLLVFQ"
measured_value = 0.461

[[record]]
macromolecule_sequence = "LSFLLLLGCFGS"
measured_value = 0.453


Asked: Hi! What's the reported protein stability index for ACLLCVCVESRE on Saccharomyces cerevisiae?
Given back: 0.38

Asked: Test system Saccharomyces cerevisiae; read-out protein stability index; what value for LPVSLWLVCSFF ?;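 note: PSI is a weighted mean of sequencing reads over stability bins, variants kept only with over 10 reads, mCherry proximal and sfGFP distal, peptide attached via GGGS linker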
Given back: 0.345
